experiment: inhibitors of fungal efflux pumps CDR1, CDR2, MDR1, pilot screen, validation compound set, multiplex, phenotypic (AID 588506);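 further: Nile Red retained in cells so higher fluorescence means more efflux inhibition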; conditions: S. cerevisiae pump-expressing triplex, Nile Red efflux flow cytometry; at 10 µM; active compounds read high
Rule for this label: y means efflux inhibition (fraction of control) is less than 0.04; n means efflux inhibition (fraction of control) is at least 0.04.

{"Molecule": "Cc1nc2ccccc2c(=O)n1-c1ccc(C(=O)O)cc1", "Group": "y"}
{"Molecule": "CCOC(=O)C1=C(C)OC(N)=C(C(=O)OCC)[C@@]12C(=O)N(CC(N)=O)c1ccccc12", "Group": "y"}
{"Molecule": "CN1CCN(C(=O)OC2c3nccnc3C(=O)N2c2ccc(Cl)cn2)CC1 (stereo unspecified)", "Group": "y"}
{"Molecule": "O=c1[nH]c2ccccc2n1CCCN1CCC(n2c(=O)[nH]c3cc(Cl)ccc32)CC1", "Group": "y"}
{"Molecule": "Nc1ccncc1", "Group": "y"}
{"Molecule": "C[C@H]1OC[C@@H](C[N+](C)(C)C)O1", "Group": "y"}
{"Molecule": "c1ccc2c(c1)Nc1ccccc1S2", "Group": "n"}
{"Molecule": "O=C1NC(=O)C2(Cc3ccccc3N3CCCC32)C(=O)N1c1ccc(Cl)cc1 (stereo unspecified)", "Group": "n"}
{"Molecule": "Clc1ccc(COC(Cn2ccnc2)c2ccc(Cl)cc2Cl)c(Cl)c1 (stereo unspecified)", "Group": "n"}
{"Molecule": "C[C@H]1CCCC(=O)CCCCCc2cc(O)cc(O)c2C(=O)O1", "Group": "y"}
